Assay: chemical genetic growth profiling, strain panel (AID 1159580);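 also: tested at 20 µM; growth read once vehicle control cultures reached saturation at 30 °C; 1 = growth at the plate median or of vehicle wells; lower values mean less growth of the strain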
Conditions: S. cerevisiae deletion strains, growth OD, locus YBR021W, strain FUR4, hits give low values
In all, about 5,500 compounds went through this assay and about 2,000 (36%) were called active. Not shown: some 18% with an inconclusive outcome. The list shows a part of the results.
readout.kind: normalized growth
Please reply with the number alone, leaving off any unit.

Please review the following examples before continuing.
>  <molecule>
NS(=O)(=O)c1cc2c(cc1C(F)(F)F)NC(Cc1ccccc1)NS2(=O)=O (stereo not given)

>  <normalized growth>
1.02

$$$$
>  <molecule>
COc1cc(C(=O)O)cc(OC)c1OC

>  <normalized growth>
1.01

$$$$
>  <molecule>
COc1ccc(-c2cc(=O)c3c(O)cc(O)cc3o2)cc1

>  <normalized growth>
1.02

$$$$
>  <molecule>
O=C(Oc1ccccc1C(=O)O)c1ccccc1O

>  <normalized growth>
1

$$$$
>  <molecule>
COP(N)(=O)SC (stereo not given)

>  <normalized growth>
1.01

$$$$
>  <molecule>
CCCCC(=O)O[C@]1(C(=O)CO)[C@@H](C)CC2C3CCC4=CC(=O)C=C[C@]4(C)[C@@]3(F)C(O)C[C@@]21C (stereo not given in full)

>  <normalized growth>
0.986

$$$$
>  <molecule>
CCc1ccc2c(O)c3c(cc2c1C(=O)OC)C(=O)c1c(O)ccc(O)c1C3=O

>  <normalized growth>
1.02

$$$$
>  <molecule>
CC(=O)Oc1ccccc1C(=O)Oc1ccccc1C(=O)O

>  <normalized growth>
0.981

$$$$

*Q* Look up normalized growth for this molecule: `CC1(C)S[C@@H]2[C@H](NC(=O)[C@@H](N)c3ccc(O)cc3)C(=O)N2[C@H]1C(=O)O`
*A* 1

*Q* Look up normalized growth for this molecule: CC1(C)O[C@@H]2CC3C4C[C@H](F)C5=CC(=O)CC[C@]5(C)C4[C@@H](O)C[C@]3(C)[C@]2(C(=O)CO)O1 (stereo not given in full)
*A* 1.02

*Q* Look up normalized growth for this molecule: COC(=O)C(N)CS (stereo not given)
*A* 0.994

*Q* Look up normalized growth for this molecule: `CSc1nc(NC(C)C)nc(NC(C)C)n1`
*A* 1.04

*Q* Look up normalized growth for this molecule: CC(=O)N1CCN(c2ccc(OCC3CO[C@](Cn4ccnc4)(c4ccc(Cl)cc4Cl)O3)cc2)CC1 (stereo not given in full)
*A* 0.163

*Q* Look up normalized growth for this molecule: `Cc1cc(N)c2ccccc2[n+]1CCCCCCCCCC[n+]1c(C)cc(N)c2ccccc21`
*A* 0.0907

*Q* Look up normalized growth for this molecule: `COc1nc(NC(C)C)nc(NC(C)C)n1`
*A* 1.04

----------
Experiment: chemical genetic growth profiling, strain panel (AID 1159580);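 also: tested at 20 µM; growth read once vehicle control cultures reached saturation at 30 °C; 1 = growth at the plate median or of vehicle wells; lower values mean less growth of the strain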
Conditions: S. cerevisiae deletion strains, growth OD, locus YLR221C, strain rsa3, hits give low values
Screen size: about 5,500 compounds; about 2,000 (36%) were called active. About 18% were inconclusive and are not listed. The list shows a part of the results.
Entries and their measured normalized growth follow.
Please reply with the number alone, leaving off any unit.

>  <compound>
CNC[C@H](O)c1cccc(O)c1

>  <normalized growth>
0.987

$$$$
>  <compound>
COc1ccc(-c2cc(=O)c3c(OC)c(OC)c(OC)c(OC)c3o2)cc1OC

>  <normalized growth>
0.996

$$$$
>  <compound>
CCCc1nc(C)c2c(=O)[nH]c(-c3cc(S(=O)(=O)N4CCN(CC)CC4)ccc3OCC)nn12

>  <normalized growth>
0.978

$$$$

*Q* Look up normalized growth for this compound: `O=S(=O)(O)O`
*A* 0.979

*Q* Look up normalized growth for this compound: `O=C(CCCN1CCN(c2ccccn2)CC1)c1ccc(F)cc1`
*A* 0.976

*Q* Look up normalized growth for this compound: CC(C)(C)NCC(O)COc1cccc2c1CCCC2=O (configuration not stated)
*A* 0.999

*Q* Look up normalized growth for this compound: O=c1c2cc(O)c(O)cc2oc2cc(O)c(C3O[C@H](CO)[C@H](O)[C@@H](O)[C@H]3O)c(O)c12 (some centres not stated)
*A* 0.985

Origin of measurements: PubChem BioAssay AID1159580
